We begin with a simple list: items and their reported IC50.
# study system: DYRK1/DYRK1A (Homo sapiens)
# Construct: made in house
# test method notes: Kinase competition binding assay, DYRK1/DYRK1A
# condition description: Table 1 kinase panel
# Description: Cannabis flavonoids and their analogs were subjected to kinase inhibition assay. The compounds were first screened at a single concentration of 10 μM in the primary assay. […]. […] See also, Karaman et al., “A Quantitative Analysis Of Kinase Inhibitor Selectivity”, Nat. […] For most assays, kinases were fused to T7 phage strains (Fabian, supra) and for the other assays, kinases were produced in HEK-293 cells after which they were tagged with DNA for quantitative PCR detection. […]

Use the examples below as a reference point.
COc1cc(-c2cc(=O)c3c(O)cc(O)c(CC=C(C)C)c3o2)ccc1O [FBL-03G] = 36 nM
COc1cc(-c2cc(=O)c3c(O)cc(O)c(C/C=C(\C)CCC=C(C)C)c3o2)ccc1O [FBL-03C] = 620 nM
COc1cc(-c2cc(=O)c3c(O)c(C/C=C(\C)CCC=C(C)C)c(O)cc3o2)ccc1O [FBL-03A] = > 20000 nM
COc1ccc(-c2cc(=O)c3c(O)c(C/C=C(\C)CCC=C(C)C)c(O)cc3o2)cc1OC [FBL-03D] = > 30000 nM

# context switch: different compound, same IC50
Ask: Look up IC50: COc1cc(-c2cc(=O)c3c(O)c(CC=C(C)C)c(O)cc3o2)ccc1O [FBL-03B]
Result: < 1000 nM

* * *

We begin with a simple list: items and their reported IC50.
# study system: PIK4CB (Homo sapiens, UniProt Q9UBF8)
# Construct: T7 phage fusion (most assays) or DNA tag for qPCR (HEK-293-made kinases); made in house
# Sequence (Q9UBF8 whole entry, the tested form may be a part): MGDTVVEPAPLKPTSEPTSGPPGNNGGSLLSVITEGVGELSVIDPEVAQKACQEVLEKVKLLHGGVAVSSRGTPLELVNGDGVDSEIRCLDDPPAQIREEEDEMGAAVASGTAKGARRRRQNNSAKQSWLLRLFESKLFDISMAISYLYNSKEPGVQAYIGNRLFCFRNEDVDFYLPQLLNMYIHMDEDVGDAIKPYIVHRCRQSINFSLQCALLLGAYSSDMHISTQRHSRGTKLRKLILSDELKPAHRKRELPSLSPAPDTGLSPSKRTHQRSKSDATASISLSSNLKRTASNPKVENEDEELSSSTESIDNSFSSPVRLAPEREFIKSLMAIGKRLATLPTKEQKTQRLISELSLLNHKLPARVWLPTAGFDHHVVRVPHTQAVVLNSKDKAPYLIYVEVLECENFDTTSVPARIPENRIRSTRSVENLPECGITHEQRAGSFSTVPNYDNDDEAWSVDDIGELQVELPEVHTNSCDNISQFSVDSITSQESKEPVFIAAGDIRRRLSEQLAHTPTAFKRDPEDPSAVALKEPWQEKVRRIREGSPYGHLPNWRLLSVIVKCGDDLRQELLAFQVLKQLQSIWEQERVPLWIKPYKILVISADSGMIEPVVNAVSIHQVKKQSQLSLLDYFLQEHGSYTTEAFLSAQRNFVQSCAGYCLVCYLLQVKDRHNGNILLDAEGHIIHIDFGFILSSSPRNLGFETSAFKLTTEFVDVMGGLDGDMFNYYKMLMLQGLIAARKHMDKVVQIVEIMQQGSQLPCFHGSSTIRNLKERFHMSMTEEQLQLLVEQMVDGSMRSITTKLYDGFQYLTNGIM
# test method notes: Kinase competition binding assay, PIK4CB
# condition description: Table 1 kinase panel

COc1cc(-c2cc(=O)c3c(O)cc(O)c(C/C=C(\C)CCC=C(C)C)c3o2)ccc1O [FBL-03C] = > 1000 nM
COc1cc(-c2cc(=O)c3c(O)cc(O)c(CC=C(C)C)c3o2)ccc1O [FBL-03G] = > 20000 nM
COc1ccc(-c2cc(=O)c3c(O)c(C/C=C(\C)CCC=C(C)C)c(O)cc3o2)cc1OC [FBL-03D] = > 30000 nM

# context switch: different compound, same IC50
Ask: Look up IC50: COc1cc(-c2cc(=O)c3c(O)c(C/C=C(\C)CCC=C(C)C)c(O)cc3o2)ccc1O [FBL-03A]
Result: 670 nM

* * *

We begin with a simple list: items and their reported pIC50.
# study system: FLT3(D835Y) (Homo sapiens, UniProt P36888, D835Y)
# Construct: made in house
# Sequence (P36888 27-993 D835Y): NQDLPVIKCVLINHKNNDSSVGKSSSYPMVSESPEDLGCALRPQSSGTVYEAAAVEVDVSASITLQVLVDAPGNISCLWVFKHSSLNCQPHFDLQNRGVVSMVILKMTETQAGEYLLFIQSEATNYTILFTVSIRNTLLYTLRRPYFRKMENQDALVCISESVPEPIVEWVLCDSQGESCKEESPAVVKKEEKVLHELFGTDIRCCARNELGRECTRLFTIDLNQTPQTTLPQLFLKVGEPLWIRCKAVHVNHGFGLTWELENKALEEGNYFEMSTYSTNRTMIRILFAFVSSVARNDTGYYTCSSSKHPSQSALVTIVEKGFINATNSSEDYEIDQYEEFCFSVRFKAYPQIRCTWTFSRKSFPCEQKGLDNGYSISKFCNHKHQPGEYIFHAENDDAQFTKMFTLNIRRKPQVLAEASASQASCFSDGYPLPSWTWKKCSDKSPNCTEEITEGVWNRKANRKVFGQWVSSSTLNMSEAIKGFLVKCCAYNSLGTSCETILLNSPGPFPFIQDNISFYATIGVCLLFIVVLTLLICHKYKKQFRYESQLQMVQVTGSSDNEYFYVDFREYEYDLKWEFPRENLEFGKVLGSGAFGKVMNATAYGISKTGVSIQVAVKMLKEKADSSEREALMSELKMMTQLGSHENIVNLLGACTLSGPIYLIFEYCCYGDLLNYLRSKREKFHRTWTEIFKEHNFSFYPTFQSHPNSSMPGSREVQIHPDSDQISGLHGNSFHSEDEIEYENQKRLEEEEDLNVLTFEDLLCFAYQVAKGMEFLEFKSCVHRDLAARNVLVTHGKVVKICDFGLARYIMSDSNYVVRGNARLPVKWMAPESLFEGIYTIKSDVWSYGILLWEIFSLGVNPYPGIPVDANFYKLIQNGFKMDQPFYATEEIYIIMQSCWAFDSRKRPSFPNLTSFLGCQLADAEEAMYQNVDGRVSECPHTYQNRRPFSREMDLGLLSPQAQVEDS
# Type: binding
# condition description: Table 4; read-out: Acute Myeloid Leukemia Kinases FLT3-D835Y IC50
Kindly note that pIC50 refers to -log10 of the concentration in mol/L and answer with the value alone.

COc1cc(O)c2c(=O)c(O)c(-c3ccc(O)c(O)c3)oc2c1 [FBLGS-79] = 7.89

# context switch: different compound, same pIC50
Ask: Notebook: pull reported pIC50 for FLT3(D835Y) (Homo sapiens, UniProt P36888, D835Y), entry COc1cc(O)c2c(=O)c(O)c(-c3ccc(O)c(O)c3)oc2c1 [FBLGS-78]
Result: 6.83

* * *

# study system: SIRT-2 (Homo sapiens)
# Sequence (Q8IXJ6 1-389): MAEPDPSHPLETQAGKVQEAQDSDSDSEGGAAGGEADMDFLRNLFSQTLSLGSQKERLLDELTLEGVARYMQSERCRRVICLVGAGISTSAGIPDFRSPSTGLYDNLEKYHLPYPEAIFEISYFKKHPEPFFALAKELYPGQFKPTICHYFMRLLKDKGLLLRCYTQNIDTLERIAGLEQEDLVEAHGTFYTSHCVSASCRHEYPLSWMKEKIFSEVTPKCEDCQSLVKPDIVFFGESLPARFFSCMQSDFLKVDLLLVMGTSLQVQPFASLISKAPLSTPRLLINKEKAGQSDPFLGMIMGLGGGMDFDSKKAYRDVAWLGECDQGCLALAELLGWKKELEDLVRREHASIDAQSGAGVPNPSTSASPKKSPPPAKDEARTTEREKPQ
# test method notes: Inhibition of sirtuins, SIRT-2
# Format: biochemical
# condition description: Table 3 SIRT
outcome measure: IC50 (µM)
Respond with the bare value in µM.

Use the examples below as a reference point.
COc1cc(-c2cc(=O)c3c(O)cc(O)c(CC=C(C)C)c3o2)ccc1O [FBL-03G] = 24.1
COc1cc(-c2cc(=O)c3c(O)cc(O)c(C/C=C(\C)CCC=C(C)C)c3o2)ccc1O [FBL-03C] = 14
COc1cc(-c2cc(=O)c3c(O)c(CC=C(C)C)c(O)cc3o2)ccc1O [FBL-03B] = 10.8
COc1ccc(-c2cc(=O)c3c(O)c(C/C=C(\C)CCC=C(C)C)c(O)cc3o2)cc1OC [FBL-03D] = 2.38

Ask: Look up IC50: COc1cc(-c2cc(=O)c3c(O)c(C/C=C(\C)CCC=C(C)C)c(O)cc3o2)ccc1O [FBL-03A]
Result: 2.57

* * *

We begin with a simple list: items and their reported IC50.
# study system: MMP-2 (Homo sapiens, UniProt P08253)
# Sequence (P08253 110-660): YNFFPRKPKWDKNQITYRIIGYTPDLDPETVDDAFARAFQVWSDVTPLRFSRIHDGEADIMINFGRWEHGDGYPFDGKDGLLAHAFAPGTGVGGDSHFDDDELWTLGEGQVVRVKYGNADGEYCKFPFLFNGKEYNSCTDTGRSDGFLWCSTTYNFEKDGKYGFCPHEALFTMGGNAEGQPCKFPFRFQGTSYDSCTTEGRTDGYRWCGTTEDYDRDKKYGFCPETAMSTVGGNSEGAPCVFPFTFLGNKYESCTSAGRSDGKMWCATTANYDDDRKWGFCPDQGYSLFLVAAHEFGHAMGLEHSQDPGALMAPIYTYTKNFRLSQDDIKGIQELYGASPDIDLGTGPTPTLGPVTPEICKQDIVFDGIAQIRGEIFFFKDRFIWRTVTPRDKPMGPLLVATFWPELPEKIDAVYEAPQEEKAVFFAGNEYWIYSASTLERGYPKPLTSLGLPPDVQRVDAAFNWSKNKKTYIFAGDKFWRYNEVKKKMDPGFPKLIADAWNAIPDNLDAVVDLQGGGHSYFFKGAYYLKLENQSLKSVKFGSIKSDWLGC
# test method notes: Inhibition of matrix metalloproteinase, MMP-2
# Format: biochemical
# condition description: Table 3 Matrix metalloproteinase
Respond with the bare value in µM.

COc1cc(-c2cc(=O)c3c(O)cc(O)c(CC=C(C)C)c3o2)ccc1O [FBL-03G] = 6.64

# context switch: different compound, same IC50
Ask: Look up IC50: COc1cc(-c2cc(=O)c3c(O)c(CC=C(C)C)c(O)cc3o2)ccc1O [FBL-03B]
Result: 115
